target: human HPK1 (MAP4K1) (Homo sapiens (Human), UniProt Q92918); test: HPK1 IC50 Assay; conditions: recombinant HPK1 kinase domain 0.15 nM, synthetic peptide substrate STK S1, 3 hours at 25° C., time-resolved fluorescence energy transfer; geometric mean of multiple experiments
Sequence (Q92918 17-274): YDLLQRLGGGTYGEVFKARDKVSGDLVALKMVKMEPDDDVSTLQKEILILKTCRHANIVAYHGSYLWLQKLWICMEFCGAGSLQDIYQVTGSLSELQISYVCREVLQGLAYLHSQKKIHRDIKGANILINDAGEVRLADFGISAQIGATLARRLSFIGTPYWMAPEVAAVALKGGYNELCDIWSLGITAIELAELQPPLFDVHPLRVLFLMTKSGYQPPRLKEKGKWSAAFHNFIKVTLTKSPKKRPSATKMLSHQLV
Hi there, I'd appreciate the recorded IC50 for every entry that follows.
Lab book: enter the figure in nM, no units written.

### Prompt Return IC50 measured with human HPK1 (MAP4K1) (Homo sapiens (Human), UniProt Q92918) given this molecule: Cc1c(-c2cc(Cl)c3c(c2)/C(=C/c2ccc[nH]2)C(=O)N3)cnc2c1NCCO2
### Response 1.98

### Prompt Param readout = IC50; param system = human HPK1 (MAP4K1) (Homo sapiens (Human), UniProt Q92918); param query = Cc1c[nH]c(/C=C2\C(=O)Nc3c(Cl)cc(-c4cnc5c(c4C)NCCO5)cc32)c1 ; response: value
### Response 2.61

### Prompt Form field: IC50 recorded for Cc1c(-c2ccc3c(c2)/C(=C/c2ncc[nH]2)C(=O)N3)cnc2c1NCCO2 with human HPK1 (MAP4K1) (Homo sapiens (Human), UniProt Q92918) (enter value)
### Response 0.77

### Prompt Fill in the recorded IC50 for this molecule, with human HPK1 (MAP4K1) (Homo sapiens (Human), UniProt Q92918) as test system: Cc1c(-c2cc3c(cc2Cl)NC(=O)/C3=C\c2cc3ccccc3[nH]2)cnc2c1NCCO2
### Response 0.19

### Prompt // lookup IC50 | system=human HPK1 (MAP4K1) (Homo sapiens (Human), UniProt Q92918) | key= Cc1c[nH]c(/C=C2\C(=O)Nc3c(F)cc(-c4cnc5c(c4C)NCCO5)cc32)c1
### Response 0.05

### Prompt Could you share what IC50 was measured for CCc1nc(C)c(/C=C2\C(=O)Nc3ccc(-c4cnc5c(c4C)NCCO5)cc32)[nH]1 , tested on human HPK1 (MAP4K1) (Homo sapiens (Human), UniProt Q92918)?
### Response 0.12

### Prompt Write down the reported IC50 of Cc1c(-c2cc(F)c3c(c2C)/C(=C/c2cc4ccccc4[nH]2)C(=O)N3)cnc2c1NCCO2 , test system: human HPK1 (MAP4K1) (Homo sapiens (Human), UniProt Q92918).
### Response 0.51

### Prompt Give recorded IC50 with human HPK1 (MAP4K1) (Homo sapiens (Human), UniProt Q92918) for the following molecule: O=C1Nc2ccc(-c3cnc4c(c3)NCCO4)cc2/C1=C/c1ncc[nH]1
### Response 66.7

Origin of the recorded values: patent US11453681B2
